Experiment: Appearance of formulation (state at 25° C.)
Format: physicochemical
Details: 25° C.; components (A) and (B) at the compounding molar ratio shown
measurement.type: state at 25° C.

Prompt line: # query: state at 25° C. of entry CC(C)[C@H](N)C(=O)O.N[C@@H](CCC(=O)O)C(=O)O [Formulation 196]
Response line: Solid

Prompt line: # query: state at 25° C. of entry CCC(=O)O.NCCCC[C@H](N)C(=O)O [Formulation 3]
Response line: Solid

Prompt line: # query: state at 25° C. of entry CCC(=O)O.C[C@H](N)C(=O)O [Formulation 149]
Response line: Solid

Prompt line: # query: state at 25° C. of entry CC(O)C(=O)O.CC(O)C(=O)O.NCCCC[C@H](N)C(=O)O [Formulation 31]
Response line: Solid

More entries:
Prompt line: # query: state at 25° C. of entry CCCC(=O)O.CCCC(=O)O.N[C@@H](Cc1cnc[nH]1)C(=O)O [Formulation 110]
Response line: Solid

Prompt line: # query: state at 25° C. of entry CC(C)[C@H](N)C(=O)O.O=C(O)/C=C/C(=O)O [Formulation 197]
Response line: Solid

Prompt line: # query: state at 25° C. of entry CC(O)C(=O)O.N[C@@H](Cc1cnc[nH]1)C(=O)O [Formulation 94]
Response line: Solid

Prompt line: # query: state at 25° C. of entry CC(C)[C@H](N)C(=O)O.CC(O)C(=O)O [Formulation 193]
Response line: Solid

Prompt line: # query: state at 25° C. of entry CC(C)[C@H](N)C(=O)O.O=C(O)C[C@H](O)C(=O)O [Formulation 198]
Response line: Solid

Prompt line: # query: state at 25° C. of entry CC(C)C[C@H](N)C(=O)O.CCCCCC(=O)O [Formulation 207]
Response line: Solid

Prompt line: # query: state at 25° C. of entry CCCC(=O)O.N=C(N)NCCC[C@H](N)C(=O)O [Formulation 47]
Response line: Solid

Prompt line: # query: state at 25° C. of entry NCC(=O)O.O=C(O)/C=C/C(=O)O [Formulation 140]
Response line: Solid

Prompt line: # query: state at 25° C. of entry N[C@@H](Cc1c[nH]cn1)C(=O)O.O=C(O)c1ccccc1 [Formulation 102]
Response line: Solid

Prompt line: # query: state at 25° C. of entry NCCCC(=O)O.O=C1O[C@H]([C@@H](O)CO)C(O)=C1O [Formulation 185]
Response line: Solid

Prompt line: # query: state at 25° C. of entry NCCCC(=O)O.N[C@@H](CCC(=O)O)C(=O)O [Formulation 179]
Response line: Solid

Prompt line: # query: state at 25° C. of entry N[C@@H](CO)C(=O)O.O=C(O)C(O)C(O)C(=O)O (stereo not drawn) [Formulation 251]
Response line: Solid

Prompt line: # query: state at 25° C. of entry N=C(N)NCCC[C@H](N)C(=O)O.O=CO [Formulation 43]
Response line: Solid

Prompt line: # query: state at 25° C. of entry CC[C@H](C)[C@H](N)C(=O)O.O=C(O)CCCCC(=O)O [Formulation 228]
Response line: Solid

Prompt line: # query: state at 25° C. of entry CC(C)C[C@H](N)C(=O)O.O=C(O)c1ccccc1 [Formulation 218]
Response line: Solid

Prompt line: # query: state at 25° C. of entry C[C@@H](O)[C@H](N)C(=O)O.O=C(O)CCC(=O)O [Formulation 263]
Response line: Solid

Prompt line: # query: state at 25° C. of entry N[C@@H](Cc1c[nH]cn1)C(=O)O.O=CO.O=CO [Formulation 106]
Response line: Solid
